The following molecules are listed with their measured inhibition at 2 µM values.
Target: human GPR84 receptor (Homo sapiens, UniProt Q9NQS5)
Construct: host or cells: HEK293, transient transfection
Sequence (Q9NQS5 whole entry): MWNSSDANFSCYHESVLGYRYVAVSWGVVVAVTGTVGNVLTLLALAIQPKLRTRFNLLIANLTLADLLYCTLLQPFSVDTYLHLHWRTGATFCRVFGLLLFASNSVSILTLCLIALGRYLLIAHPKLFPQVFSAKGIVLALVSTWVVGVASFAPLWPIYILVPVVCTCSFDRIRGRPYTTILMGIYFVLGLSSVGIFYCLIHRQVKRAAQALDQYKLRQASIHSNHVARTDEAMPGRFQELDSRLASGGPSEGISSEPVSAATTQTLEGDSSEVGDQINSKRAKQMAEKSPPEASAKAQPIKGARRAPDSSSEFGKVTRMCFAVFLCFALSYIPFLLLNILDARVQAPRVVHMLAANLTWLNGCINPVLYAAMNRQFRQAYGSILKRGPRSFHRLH
Assay: Gαi biosensor BRET assay in HEK293 cells (antagonism of ZQ-16)
Format: cell-based
Details: HEK293, single concentration 2 μM (designated A)

[
  {
    "molecule": "CN(C)c1cc(N2CC(C)(CO)C2)c(F)cc1-c1cn(CC2OCC(C)(C)CO2)nn1",
    "observed property": "inhibition at 2 µM",
    "measured result": "> 75%"
  },
  {
    "molecule": "C(#CC1CC1)c1cnc(-c2cn(C[C@H]3CCCCO3)nn2)c(OC2CC2)c1",
    "observed property": "inhibition at 2 µM",
    "measured result": "> 75%"
  },
  {
    "molecule": "Cc1ccc(C#CC2CC2)nc1-c1cn(Cc2ncccn2)nn1",
    "observed property": "inhibition at 2 µM",
    "measured result": "≤ 25%"
  },
  {
    "molecule": "Cc1cc(N2CC(C)(CNc3ccccn3)C2)ccc1-c1cn(CC2OCC(C)(C)CO2)nn1",
    "observed property": "inhibition at 2 µM",
    "measured result": "> 75%"
  },
  {
    "molecule": "Cc1cc(C#CC2CC2)ccc1-c1cn(CC2CCCC(C)(C)O2)nn1 (centres unmarked)",
    "observed property": "inhibition at 2 µM",
    "measured result": "≤ 25%"
  }
]

Could you share which inhibition at 2 µM value was measured for CN(C)c1cc(N2CC(C)(CO)C2)c(F)cc1-c1cn(CC2CC(C)(C)CO2)nn1 (centres unmarked) ?
> 75%

Could you share which inhibition at 2 µM value was measured for CC1(C)CCC(Cn2cc(-c3ncc(C#CC4CC4)cc3OC3CC3)nn2)OC1 (centres unmarked) ?
> 75%

Could you share which inhibition at 2 µM value was measured for Cc1cc(C#CC2CC2)ccc1-c1cn(CC23CCC(CC2)CO3)nn1 ?
≤ 25%

Could you share which inhibition at 2 µM value was measured for CC(=O)N(c1cn(CC2OCC(C)(C)CO2)nn1)c1cc(C#CC2CC2)ccc1C ?
> 75%

Could you share which inhibition at 2 µM value was measured for CO[C@@H](c1cn(C[C@@H]2CCCCO2)nn1)c1cc(C#CC2CC2)ccc1C ?
25 to 50%

Could you share which inhibition at 2 µM value was measured for COC(c1cn(CC2CCCCO2)cn1)c1cc(C#CC2CC2)ccc1C (centres unmarked) ?
> 75%
